Target: E3 ubiquitin-protein ligase XIAP (Homo sapiens)
Assay: XIAP binders, primary screen, biophysical, small-molecule microarray, fluorescence 635 nm (AID 1181)
Settings: small-molecule microarray binding, higher = more signal
Answer rule not met if composite z-score is under -0.1, and rule met if it is -0.1 or more.

Ask: Does CCOC(=O)C[C@H]1[C@H](OC(=O)Cc2ccc3c(c2)OCO3)[C@@H](NC(=O)c2ccc(-c3ccccc3)cc2)c2cc(OCCCO)ccc2N1C(=O)Cc1ccc(OC)cc1 have a reported composite z-score of at least -0.1?
Reply: rule met

Ask: Does C=CC[C@@]1(C(=O)N(C)C)N=C(c2ccc(OCCCO)cc2)O[C@@H]1c1ccccc1N=[N+]=[N-] have a reported composite z-score of at least -0.1?
Reply: rule met

Ask: Does COC(=O)C=C(CC(O)c1cccc(Cl)c1)OC (stereo unspecified) have a reported composite z-score of at least -0.1?
Reply: rule not met

Ask: Does COCCOC(=O)N1C(=O)[C@@]2(c3cc(C#Cc4ccc(OC)cc4)ccc31)[C@H](C(=O)N1CCCCCCC1)[C@H]1C(=O)O[C@H](c3ccccc3)[C@H](c3ccccc3)N1[C@@H]2c1ccc(OCCO)cc1 have a reported composite z-score of at least -0.1?
Reply: rule met

Ask: Does O=C1O[C@@H](c2ccccc2)[C@@H](c2ccccc2)N2[C@@H](c3ccc(OCCO)cc3)[C@]3(C(=O)Nc4ccccc43)[C@@H](C(=O)NC[C@H](O)c3ccccc3)[C@H]12 have a reported composite z-score of at least -0.1?
Reply: rule not met

Ask: Does [N-]=[N+]=NCc1ccccc1C[C@]1(C(=O)N2CCOCC2)N=C(c2ccc(OCCCO)cc2)O[C@H]1c1ccccc1N=[N+]=[N-] have a reported composite z-score of at least -0.1?
Reply: rule not met
